assay: Viability Counterscreen for Confirmatory qHTS for Inhibitors of ATXN expression; details: HEK-293 ATXN2-luc cells viability, CellTiter-Fluor, 24 h; also: nearly all actives have a fitted effect of over 50% in size
Hit rate of the full screen: of about 2,100 compounds, about 260 (12%) were called active. Not shown: some 58% with an inconclusive outcome. Calls follow the shape of the dose curve; as a rule, active = well fitted cell-killing curve with a large enough effect; inconclusive = small, poorly fitted or top-dose-only effect, or effect the other way; inactive = flat fitted curve, though single readings scatter. This is one part of the list.
Respond only with the outcome that fits, drawn from y (active), n (inactive)

Task: Status in this test for CCCCOc1ccc(NC2=NC3(CCCC3)N=C(N)N2)cc1 ?
Result: n

* * *

assay: Viability Counterscreen for Confirmatory qHTS for Inhibitors of ATXN expression; conditions: HEK-293 ATXN2-luc cells viability, CellTiter-Fluor, 24 h; also: nearly all actives have a fitted effect of over 50% in size; also: potency is read from the fitted curve at half-maximal effect
In all, about 2,100 compounds went through this assay and about 260 (12%) were called active. Not shown: some 58% with an inconclusive outcome. Some of the results follow.
readout type: Potency

Recorded results for 5 compounds are shown here.
[[record]]
compound = "COC(=O)c1ccc(C(=O)Nc2cc(Cl)ccc2Cl)cc1NC(=O)c1ccc(N(C)C)cc1"
assay_result = "inactive"

[[record]]
compound = "COc1ccc(CN2CCCN(S(=O)(=O)c3ccc(Br)cc3)CC2)cc1"
assay_result = "inactive"

[[record]]
compound = "CCOC(=O)COc1ccc(Br)cc1/C=C/c1[nH]c(=O)[nH]c(=O)c1[N+](=O)[O-]"
assay_result = "inactive"

[[record]]
compound = "CCc1noc(C)c1C(=O)N1CCSC1=Nc1cccc(Cl)c1C"
assay_result = "inactive"

[[record]]
compound = "Cc1cc(C)c(C)c(OC(=O)c2sc(Cl)nc2C)c1"
assay_result = "28.2 µM (active)"


Noted for Cc1cnc(NC(=O)C2CC(=O)N(c3cccc(Cl)c3)C2)s1 (stereo not given) : its Potency reads inactive

// Potency lookup, compound = O=C(NC(c1ccc(Cl)cc1)c1cc(Cl)c2cccnc2c1O)c1cccnc1 (stereo not given) , result: 12.6 µM (active)

Value of measured Potency for the entry Cc1cc(NC(c2cccnc2)c2ccc3cccnc3c2O)no1 (stereo not given) : 8.91 µM (active)

Given item Cc1sc2cc3c(c(C(=O)c4ccccc4)[n+]2c1C)-c1cccc2cccc-3c12 , the value recorded as its Potency is 12.6 µM (active)

Potency in this record for COC(=O)c1sc(NC(=O)c2ccc(OC)cc2OC)nc1C : inactive

* * *

assay: Viability Counterscreen for Confirmatory qHTS for Inhibitors of ATXN expression; conditions: HEK-293 ATXN2-luc cells viability, CellTiter-Fluor, 24 h; also: nearly all actives have a fitted effect of over 50% in size; also: potency is read from the fitted curve at half-maximal effect
Out of some 2,100 compounds screened, about 260 (12%) were called active. Not shown: some 58% with an inconclusive outcome. The list shows a part of the results.
readout type: Potency

[[record]]
molecule = "CC(=O)Nc1ccc(CNc2nc3cc(-c4ccccc4C)sc3c(=O)n2C)cc1"
assay_result = "inactive"

[[record]]
molecule = "O=c1c(Cc2ccccc2)c(O)nc2n1CCS2"
assay_result = "inactive"

[[record]]
molecule = "O=C(Nc1ccc[n+](CC(=O)c2cccc3ccccc23)c1)c1ccccc1"
assay_result = "3.16 µM (active)"

[[record]]
molecule = "CCn1c2ccccc2c2cc(NC(=O)COC(=O)c3ccccc3F)ccc21"
assay_result = "inactive"

[[record]]
molecule = "CC(C)Nc1nc(NC(C)C)nc(N(C#N)CCOc2ccc(Cl)cc2Cl)n1"
assay_result = "inactive"


Sure, the documented Potency for CC(C(=O)c1ccc(-c2ccccc2)cc1)[n+]1cccc(NC(=O)c2ccccc2)c1 (stereo not given) is inactive

Potency recorded for this molecule, O=C(NC(c1ccccc1)c1ccc2ccccc2n1)C1CCN(CCOc2ccc(Cl)cc2Cl)CC1 (stereo not given) , is 25.1 µM (active)

molecule O=S(=O)([N-]c1nc2ccccc2nc1-[n+]1ccc(Cc2ccccc2)cc1)c1ccc(Br)s1 , Potency observed: 7.94 µM (active)

get_value(item= Oc1c(C(Nc2nccs2)c2ccc(C(F)(F)F)cc2)ccc2cccnc12 (stereo not given) , readout=Potency) returns 15.8 µM (active)

Field Potency (entry Cc1ccc(SC2=C(Sc3ccc(C)cc3)C(=O)c3ccccc3C2=O)cc1 ) reads inactive

* * *

test: Viability Counterscreen for Confirmatory qHTS for Inhibitors of ATXN expression; settings: HEK-293 ATXN2-luc cells viability, CellTiter-Fluor, 24 h; also: nearly all actives have a fitted effect of over 50% in size; also: potency is read from the fitted curve at half-maximal effect
Among all 2,100 compounds or so, about 260 (12%) were called active. Roughly 58% stayed inconclusive and do not appear here. The list shows a part of the results.
readout type: Potency

[[record]]
compound = "O=C(COc1ccc(F)cc1)N/N=C/c1cccc2cccnc12"
assay_result = "inactive"

[[record]]
compound = "CCn1c2ccccc2c2cc(NC(=O)COC(=O)Cc3cn4ccsc4n3)ccc21"
assay_result = "inactive"

[[record]]
compound = "NC(Cc1ccccc1)c1csc(Nc2nccc(C(F)(F)F)n2)n1 (stereo unspecified)"
assay_result = "14.1 µM (active)"

[[record]]
compound = "Nn1cnnc1N/N=C/c1cc(Br)cc(Br)c1O"
assay_result = "inactive"

[[record]]
compound = "Cc1ccc(SCCC(=O)N/N=C/c2ccccc2O)cc1"
assay_result = "inactive"

[[record]]
compound = "Cc1cccc(N2CCN(C(=O)CNC(=O)Cc3ccccc3)CC2)c1C"
assay_result = "inactive"

[[record]]
compound = "CCCNC(=O)c1ccc2c(=O)c(O)c(-c3cccc(Br)c3)[nH]c2c1"
assay_result = "inactive"

[[record]]
compound = "Nc1ccc(OC(=O)Nc2ccc(O)cc2)cc1"
assay_result = "inactive"

[[record]]
compound = "CCCCC(=O)N(C)c1c(CC)nc2c(OCc3ccc(Cl)cc3Cl)cccn12"
assay_result = "inactive"

[[record]]
compound = "NC(=S)n1[nH]c(-c2ccc([N+](=O)[O-])cc2)c(N=Nc2cccc(Cl)c2)c1=O"
assay_result = "11.2 µM (active)"


Now look at this entry.
Looking up CCCc1nc(NC2CCCCC2)c(C#N)c2c1COC(C)(C)C2 , I see its Potency listed as inactive

* * *

assay: Viability Counterscreen for Confirmatory qHTS for Inhibitors of ATXN expression; settings: HEK-293 ATXN2-luc cells viability, CellTiter-Fluor, 24 h; also: nearly all actives have a fitted effect of over 50% in size
The whole screen tested about 2,100 compounds, of which about 260 (12%) were called active. Roughly 58% stayed inconclusive and do not appear here. The call rests on the fitted dose curve; in most records, active means well fitted cell-killing curve with a large enough effect; inconclusive means small, poorly fitted or top-dose-only effect, or effect the other way; inactive means flat fitted curve, though single readings scatter. The list shows a part of the results.
Outcome (select one): active, inactive

The following compounds have reported results that may help.
[[record]]
compound = "Cc1cc(/C=N/n2cnnc2)c(C)n1-c1ccc(OCc2ccc(Cl)cc2Cl)cc1"
answer_label = "active"

[[record]]
compound = "Cc1cc(C(=O)CN2C(=O)c3ccccc3S2(=O)=O)c(C)n1C(C)C"
answer_label = "inactive"


Task: // outcome(item) with item = NC(=O)CC(NC(=O)Cc1ccc(Br)cc1)c1ccc(NC2CCCC2)c([N+](=O)[O-])c1 (stereo not drawn)
Result: inactive

Task: Test call, this compound: O=C(NCc1ccco1)c1ccc(-c2cccc(Cl)c2)o1
Result: inactive

Task: Identify the outcome logged in this assay for the compound shown: CC(C)(C)c1ccc(OCCn2nc(C(=O)O)c3ccccc3c2=O)cc1
Result: inactive

Task: # lookup: test call for Cc1nnc(SC(C)C(=O)Nc2ccc(Cl)cn2)n1Cc1ccccc1 (stereo not drawn)
Result: inactive

Task: # lookup: test call for CCc1ccc(-n2cc(-c3ccc(F)cc3)[n+]3c2SCCC3)cc1
Result: inactive

Task: Recorded test outcome, item O=C1Nc2c(Br)cc(Br)c3cccc1c23
Result: inactive

Task: // outcome(item) with item = Cc1ccc(NC(=O)c2cnc(N3CCN(c4ccccn4)CC3)c3ccccc23)c(Br)c1
Result: active

Task: Would you mind telling me which call this test gave O=C1c2cccc3c([N+](=O)[O-])ccc(c23)C(=O)N1c1ccc(Cl)cn1 ?
Result: inactive

Task: Which outcome was assigned to Cc1cc(O)c(C(C)C)cc1N=Cc1ccc(N(C)C)cc1 in this test?
Result: inactive

Task: Answer briefly: the call reported for CCCCNCCCOc1cccc(Cl)c1Cl in this assay.
Result: inactive

Task: What was the test verdict on Cc1nc(-c2cccc(NC(=O)c3cccc(S(=O)(=O)N4CCCC4)c3)c2)cs1 ?
Result: active

Task: Write down the call the test reported for this compound. Item: O=C(CCC(=O)Nc1ccc(Br)cc1)N/N=C/c1ccccc1O
Result: inactive

Task: Recorded test outcome, item CC(C)Cn1c(/C=N/Nc2nc3ccccc3[nH]2)nc2ccccc21
Result: active

Task: Tell me the recorded outcome of this test for O=C(N/N=C/c1ccccc1O)/C(=C/c1ccccc1)CCO .
Result: inactive

Task: Can you look up the reported call for CC(C)(C)NCC(=Cc1ccccc1)C(=O)c1ccccc1 for me?
Result: active

Task: // param item: Cc1ccnc(N2C(=O)c3cccc4c([N+](=O)[O-])ccc(c34)C2=O)c1 ; yields the recorded call
Result: inactive

Task: Call for entry CCn1c(COc2ccccc2C)nnc1SCC(=O)N1CCN(c2ccccc2)CC1 :
Result: inactive
